Assay: NCI Yeast Anticancer Drug Screen. Data for the mgt1 strain (AID 153)
Conditions: S. cerevisiae mgt1 mutant growth inhibition; at 11.0 µM; hits give high values
The panel holds about 79,000 compounds, 15% with a hit somewhere; the sample as a whole holds those more often.
MEASURED PROPERTY: growth inhibition (%)
The answer is to be given in %; state only the numeric part.

molecule=O=c1c2ccccc2nc(-c2ccc(Cl)cc2)n1O measured_property="growth inhibition" experimental_value=94
molecule=O=C(c1ccccc1)[C@H]1Nc2ccc(Cl)cc2[C@H]2OCCC[C@@H]12 measured_property="growth inhibition" experimental_value=-39
molecule=CCC(/C=C/c1ccccc1)=N\Nc1ccc(Cl)cc1 measured_property="growth inhibition" experimental_value=7
molecule=OC(c1ccccc1)(c1ccccc1)c1nccc2ccccc12 measured_property="growth inhibition" experimental_value=11
molecule=CC(C)S(=O)(=O)/C=C\S(=O)(=O)C(C)C measured_property="growth inhibition" experimental_value=15

input: Please supply the value of reported growth inhibition for the item C=CC(C)(C)N1C(=O)C(C(C)=O)=C(O)C1Cc1c[nH]c2ccccc12 (configuration not stated)
output: -1

input: Please supply the value of reported growth inhibition for the item "c1cc(-c2sc(-c3ccncc3)c(-c3ccncc3)c2-c2ccncc2)ccn1"
output: 2

input: Please supply the value of reported growth inhibition for the item "Cc1ccc(S(=O)(=O)N/N=C/C(Br)=C(/Br)C(=O)O)cc1"
output: 79

input: Please supply the value of reported growth inhibition for the item O=C(O)c1ccccc1C(=O)OC1CCc2ccccc2C1 (configuration not stated)
output: -10

input: Please supply the value of reported growth inhibition for the item O=C1C(=C2CCCC2)CCC1CN1CCCCC1 (configuration not stated)
output: 13

input: Please supply the value of reported growth inhibition for the item "O=[N+]([O-])/C=C/c1cc2ccc3ccccc3c2[nH]1"
output: 81

input: Please supply the value of reported growth inhibition for the item "CC(C)=CCC/C(C)=C/CN1C(=O)C=CC1=O"
output: 100

---

Assay: NCI Yeast Anticancer Drug Screen. Data for the mec2-1 strain (AID 157)
Details: S. cerevisiae mec2-1 strain, at 5.0 µM (retest, dose inferred, filed as 0.5)
This is part of a sample that, as a whole, favours compounds with a hit. Of some 79,000 tested, about 15% had one in any assay. Active and inactive are the calls of the source. No stated cut-off is given here; in the data, active means growth inhibition above about 70%; inactive means the rest.
Write down one outcome, taken from Y = active, N = inactive

Some solved entries appear below for comparison.
molecule=O=C1Nc2ccc(Br)cc2C1=Nc1ccc(Cl)cc1 label_value=Y
molecule=CN(C)/C(=N/C(=S)Nc1ccccc1)SCc1ccccc1 label_value=N
molecule=c1ccc2nc3c(nc2c1)sc1ccccc13 label_value=N
molecule="CCC(OC(C)=O)C1CC(C(C)C)CCC1C (configuration not stated)" label_value=N
molecule=CC(C)OC(=O)NNc1c(Cl)cc(Cl)cc1Cl label_value=N

input: Called result for CC(CN(C)C)C(=O)/C=C/c1ccc(Cl)c(Cl)c1 (configuration not stated)
output: N

input: Called result for "Cc1cccc2c(Cl)c3cccc(C)c3nc12"
output: N

---

Assay: NCI Yeast Anticancer Drug Screen. Data for the rad18 strain (AID 177)
Conditions: S. cerevisiae rad18 mutant growth inhibition; at 100.0 µM; hits give high values
This is part of a sample that, as a whole, favours compounds with a hit. Of some 79,000 tested, about 15% had one in any assay.
Answer 0.0 if growth inhibition is under 90%, and 1.0 if it is 90% or more.

molecule=O=[N+]([O-])c1cn[n+]([O-])c2ccccc12 label_value=1.0
molecule=CN(CCOc1ccc(Cl)cc1)CCOc1ccc(Cl)cc1 label_value=1.0
molecule=CCN(CC)CCNc1ccc2nc(C)n3c4ccc(OC)cc4c(=O)c1c23 label_value=0.0
molecule="O=C(Cc1ccccc1)NN1C(=O)C(Cl)C1c1cc(Br)cc(Br)c1O (stereo unspecified)" label_value=0.0

input: Dear colleague, could you confirm whether O=C1NC(c2cccc(OCc3ccccc3)c2)Nc2ccccc21 (stereo unspecified) has growth inhibition at or above 90%?
output: 0.0

input: Dear colleague, could you confirm whether COC(=O)C(Cc1c[nH]c2ccccc12)N1CN(C)c2ccccc2C1=O (stereo unspecified) has growth inhibition at or above 90%?
output: 1.0

input: Dear colleague, could you confirm whether "O=C(/C=C/c1ccsc1)c1cccs1" has growth inhibition at or above 90%?
output: 0.0

---

Test: NCI Yeast Anticancer Drug Screen. Data for the mlh1 strain (AID 171);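 further: 0% = growth of vehicle-treated control cultures of the same strain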
Details: S. cerevisiae mlh1 strain growth inhibition; at 11.0 µM; hits give high values
Description: Growth inhibition of yeast strains with defined genetic alterations is measured as a screen for potential anti-cancer activity. Selected strains with alterations in DNA damage repair or cell cycle control were exposed to compounds and growth inhibition was measured relative to vehicle treated controls. The strain used in this assay is mlh1
Compounds without any hit were thinned out: in the full panel of roughly 79,000, 15% have a hit.
Some molecules, each annotated with its measured growth inhibition.
The answer is to be given in %; state only the numeric part.

Some molecules with known growth inhibition results, for comparison:
molecule=CCC(/C=C/c1ccccc1)=N\Nc1ccc(Cl)c(Cl)c1 reading_unit=% experimental_value=0
molecule="COc1cc2c(cc1O)[C@H](C)C(c1ccccc1OC)O2 (some centres not stated)" reading_unit=% experimental_value=-2
molecule="CCN1CCC(O)(c2ccc(Oc3ccc(C)cc3)cc2)C(C(=O)c2ccc(Oc3ccc(C)cc3)cc2)C1 (configuration not stated)" reading_unit=% experimental_value=98
molecule=Oc1c2c(c(O)c3ccccc13)C1(N=N2)c2ccccc2Oc2ccccc21 reading_unit=% experimental_value=98
molecule=O=C(CCSC1=NCCCN1)c1ccc(F)cc1 reading_unit=% experimental_value=-23
molecule=C=COC(=O)N[C@H]1CCc2cc(OC)c(OC)c(OC)c2-c2ccc(SC)c(=O)cc21 reading_unit=% experimental_value=0
molecule=C=CCNC1=C2C[C@@H](C)C[C@H](OC)[C@H](O)[C@@H](C)/C=C(\C)[C@H](OC(N)=O)[C@@H](OC)/C=C\C=C(/C)C(=O)NC(=CC1=O)C2=O reading_unit=% experimental_value=50
molecule=CC(C)=CCC/C(C)=C/CN1C(=O)C=CC1=O reading_unit=% experimental_value=98
molecule=O=c1c2ccccc2nc(-c2ccc(Cl)cc2)n1O reading_unit=% experimental_value=93
molecule=Cc1ccc(S(=O)(=O)N/N=C/C(Br)=C(/Br)C(=O)O)cc1 reading_unit=% experimental_value=79

Alright, here's another molecule for you.
input: Please supply the value of reported growth inhibition for the item "Nc1ccc2c(c1)C(=O)c1c(F)cccc1-2"
output: 0

---

Assay: NCI Yeast Anticancer Drug Screen. Data for the rad18 strain (AID 177)
Conditions: S. cerevisiae rad18 mutant growth inhibition; at 100.0 µM; hits give high values
This is part of a sample that, as a whole, favours compounds with a hit. Of some 79,000 tested, about 15% had one in any assay. The source made the active and inactive calls. Rule as the data show it: active = growth inhibition above about 70%; inactive = the rest.
MEASURED PROPERTY: growth inhibition

compound=Cc1ccnc2c(O)cccc12 experimental_value="99% (active)"
compound="CCN1CCC(O)(c2ccc(Oc3ccc(C)cc3)cc2)C(C(=O)c2ccc(Oc3ccc(C)cc3)cc2)C1 (stereo unspecified)" experimental_value="93% (active)"
compound=Cc1cccc(/C=N/NC(=S)NC2CCCCC2)n1 experimental_value="19% (inactive)"
compound=O=C(Nc1ccc(Cl)cc1)c1cc2cc(N=Nc3ccccc3Cl)ccc2oc1=O experimental_value="91% (active)"

input: Please supply the value of reported growth inhibition for the item "COc1ccccc1NC(=O)c1ccc(Cl)cc1"
output: 2% (inactive)

input: Please supply the value of reported growth inhibition for the item "O=C1Nc2ccc(Br)cc2C1=Nc1cccnc1"
output: -26% (inactive)

input: Please supply the value of reported growth inhibition for the item "O=S1(=O)CCC2=CC(C(F)(F)F)=CC(C(F)(F)F)=CN21"
output: 97% (active)

input: Please supply the value of reported growth inhibition for the item "CCOC(=O)Nc1ccc(C)c(NC(=O)OCC)c1"
output: 82% (active)

---

Some compounds, each annotated with its measured growth inhibition.
Test: NCI Yeast Anticancer Drug Screen. Data for the sgs1 strain (AID 173);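 further: 0% = growth of vehicle-only control cultures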
Conditions: S. cerevisiae sgs1 mutant, at 3.7 µM, hits give high values
This is part of a sample that, as a whole, favours compounds with a hit. Of some 79,000 tested, about 15% had one in any assay.
The answer is to be given in %; state only the numeric part.

Some compounds with known growth inhibition results, for comparison:
compound="N#CCC(=O)N/N=C(\\c1ccccc1)C(c1ccccc1)C1(O)C(=O)Nc2c(Cl)ccc(Cl)c21 (stereo unspecified)" experimental_value=0
compound=Cc1c(Cl)c(C)c(Cl)c(O)c1Cl experimental_value=9
compound=CN(C)CC1=Nc2cccc3cccc(c23)N1 experimental_value=-5
compound=CCCCS(=O)(=O)Nc1ccc(Nc2c3ccccc3nc3ccccc23)c(OC)c1 experimental_value=3
compound=Cc1ccc(S(=O)(=O)NC(=O)C2C(=O)CC3(CCCCC3)CC2=O)cc1 experimental_value=-8
compound=CC(C)Cc1ncc(CCCN=C(N)N)[nH]c1=O experimental_value=-12
compound="N#CC1OB(O)c2ccccc21 (stereo unspecified)" experimental_value=1
compound=CCOc1ccc2nc3ccccc3c(N)c2c1 experimental_value=24

input: Please supply the value of reported growth inhibition for the item "CCOC(=O)C(Cc1c2ccccc2cc2ccccc12)(NC(C)=O)C(=O)OCC"
output: 1

input: Please supply the value of reported growth inhibition for the item "NC(=O)NC1C(c2ccccc2)=C1c1ccccc1"
output: 5

input: Please supply the value of reported growth inhibition for the item "O=C(O)/C=C\C(=O)Nc1ccc2c(c1)Cc1cc(Cl)ccc1-2"
output: 0

input: Please supply the value of reported growth inhibition for the item "CC1=COC2=C(C)C(=O)C(=O)c3c(C)ccc1c32"
output: 29

input: Please supply the value of reported growth inhibition for the item "CN1CCN(C(=O)c2cccc3cccc(C(=O)O)c23)CC1"
output: -21

input: Please supply the value of reported growth inhibition for the item "CO[C@@]1([C@@H](Cl)c2ccccc2)C(=O)N(C)/C(=C\c2ccccc2)C(=O)N1C"
output: -3

input: Please supply the value of reported growth inhibition for the item "CN(C)/C(=N/C(=S)Nc1ccccc1)SCc1ccccc1"
output: 0

input: Please supply the value of reported growth inhibition for the item NC(N)=NC(N)=Nc1ccccc1 (tested in a mixture with another compound)
output: 7

input: Please supply the value of reported growth inhibition for the item "c1ccc([P+](CCN2Cc3ccccc3C2)(c2ccccc2)c2ccccc2)cc1"
output: 35
